tested on: Sam68 (KHDRBS1); test: Sam68 small-molecule binders, primary screen, biochemical, small-molecule microarray, 635 nm fluorescence (AID 1125); details: small-molecule microarray binding, higher = more signal;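 note: score merges 667 nm channel intensity with signal to noise over triplicate slides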
assay endpoint: composite z-score
Give bare numbers.

# batch: return composite z-score for each of the 8 compounds below
1. C=C(CCCC)/C(=C/C[C@@H](OC(=O)c1ccncc1)c1ccccc1OCCO)c1cnc2ccccc2c1
2. C[C@@H]1ON(c2ccc(C(=O)OC(C)(C)C)cc2)[C@H](c2ccc(O)cc2)[C@H]1C(=O)N1C(=O)OC[C@H]1Cc1ccccc1
3. O=C(CS)NCCCCCCNC(=O)[C@H]1C[C@H]2C(=O)N[C@@H](Cc3ccccc3)C(=O)N2[C@H]1c1ccc(O)cc1
4. C=C(C)c1cc2c(c(CCCCCC)n1)[Si](C(C)C)(C(C)C)OC2
5. COc1ccccc1CN1C(=O)c2ccccc2[C@](Cc2ccccc2I)(C(=O)NCC(F)(F)F)[C@@H]1c1ccc(CO)cc1
6. C=C(C(=O)CC[C@@H](OC(C)=O)c1ccc(CO)o1)C(C)C
7. COC(=O)[C@@]1(Cc2ccc(F)cc2)[C@H]2c3cc(C(=O)N(C)C)n(Cc4cc(F)cc5c4OCOC5)c3C[C@H]2CN1C(=O)c1ccccc1
8. O=C1OCCC=C[C@H]2OC34C=CCN(Cn5nnc6ccccc65)C(=O)[C@H]3N(CCCCCCO)C(=O)[C@@H]4C12 (stereo partly drawn)

a:
1: 1.3; 2: 1.31; 3: 1.18; 4: -0.631; 5: 1.29; 6: 0.285; 7: 1.33; 8: -0.365

Would you mind listing composite z-score for each of the following compounds?
1. COc1ccc(-c2cc3c(c(CCc4ccccc4)n2)[Si](C(C)C)(C(C)C)OC3)cn1
2. COc1cc2c(cc1O)C(C)N(Cc1ccc([N+](=O)[O-])o1)CC2 (stereo not drawn)
3. COc1cc(OC)c(C(O)C2C=CC3C(=O)N(C)C(=O)C3N2NC(=O)OC(C)(C)C)cc1Br (stereo not drawn)
4. CN(C)CCCNC(=O)[C@@]1(c2ccc([N+](=O)[O-])cc2)CC(=O)N(CC23CC4CC(CC(C4)C2)C3)[C@@H]1c1ccc(CO)cc1I
5. CCOC(=O)C[C@H]1[C@H](OC(=O)c2ccccc2-c2ccccc2)[C@@H](NC(=O)C2CCCCC2)c2cc(OCCCO)ccc2N1C(=O)Cc1ccc(OC)cc1
6. COC(=O)[C@@]1(Cc2ccccc2)[C@H]2c3cc(C(=O)N(C)C)n(Cc4c(CO)[nH]cc(C)c4=O)c3C[C@H]2CN1C(=O)c1ccccc1

a:
-0.296
1.33
1.3
1.28
-0.0019
0.432

* * *

Answer each item with its documented composite z-score.
target: Neurogenic locus notch homolog protein 2 (Homo sapiens) (UniProt Q04721); assay: Notch2 binders on small-molecule microarrays, primary screen, biochemical, small-molecule microarray, 635 nm fluorescence, stem cell growth factors (AID 1073); details: Notch2 binding, higher = more signal
Sequence (Q04721 whole entry, looked up): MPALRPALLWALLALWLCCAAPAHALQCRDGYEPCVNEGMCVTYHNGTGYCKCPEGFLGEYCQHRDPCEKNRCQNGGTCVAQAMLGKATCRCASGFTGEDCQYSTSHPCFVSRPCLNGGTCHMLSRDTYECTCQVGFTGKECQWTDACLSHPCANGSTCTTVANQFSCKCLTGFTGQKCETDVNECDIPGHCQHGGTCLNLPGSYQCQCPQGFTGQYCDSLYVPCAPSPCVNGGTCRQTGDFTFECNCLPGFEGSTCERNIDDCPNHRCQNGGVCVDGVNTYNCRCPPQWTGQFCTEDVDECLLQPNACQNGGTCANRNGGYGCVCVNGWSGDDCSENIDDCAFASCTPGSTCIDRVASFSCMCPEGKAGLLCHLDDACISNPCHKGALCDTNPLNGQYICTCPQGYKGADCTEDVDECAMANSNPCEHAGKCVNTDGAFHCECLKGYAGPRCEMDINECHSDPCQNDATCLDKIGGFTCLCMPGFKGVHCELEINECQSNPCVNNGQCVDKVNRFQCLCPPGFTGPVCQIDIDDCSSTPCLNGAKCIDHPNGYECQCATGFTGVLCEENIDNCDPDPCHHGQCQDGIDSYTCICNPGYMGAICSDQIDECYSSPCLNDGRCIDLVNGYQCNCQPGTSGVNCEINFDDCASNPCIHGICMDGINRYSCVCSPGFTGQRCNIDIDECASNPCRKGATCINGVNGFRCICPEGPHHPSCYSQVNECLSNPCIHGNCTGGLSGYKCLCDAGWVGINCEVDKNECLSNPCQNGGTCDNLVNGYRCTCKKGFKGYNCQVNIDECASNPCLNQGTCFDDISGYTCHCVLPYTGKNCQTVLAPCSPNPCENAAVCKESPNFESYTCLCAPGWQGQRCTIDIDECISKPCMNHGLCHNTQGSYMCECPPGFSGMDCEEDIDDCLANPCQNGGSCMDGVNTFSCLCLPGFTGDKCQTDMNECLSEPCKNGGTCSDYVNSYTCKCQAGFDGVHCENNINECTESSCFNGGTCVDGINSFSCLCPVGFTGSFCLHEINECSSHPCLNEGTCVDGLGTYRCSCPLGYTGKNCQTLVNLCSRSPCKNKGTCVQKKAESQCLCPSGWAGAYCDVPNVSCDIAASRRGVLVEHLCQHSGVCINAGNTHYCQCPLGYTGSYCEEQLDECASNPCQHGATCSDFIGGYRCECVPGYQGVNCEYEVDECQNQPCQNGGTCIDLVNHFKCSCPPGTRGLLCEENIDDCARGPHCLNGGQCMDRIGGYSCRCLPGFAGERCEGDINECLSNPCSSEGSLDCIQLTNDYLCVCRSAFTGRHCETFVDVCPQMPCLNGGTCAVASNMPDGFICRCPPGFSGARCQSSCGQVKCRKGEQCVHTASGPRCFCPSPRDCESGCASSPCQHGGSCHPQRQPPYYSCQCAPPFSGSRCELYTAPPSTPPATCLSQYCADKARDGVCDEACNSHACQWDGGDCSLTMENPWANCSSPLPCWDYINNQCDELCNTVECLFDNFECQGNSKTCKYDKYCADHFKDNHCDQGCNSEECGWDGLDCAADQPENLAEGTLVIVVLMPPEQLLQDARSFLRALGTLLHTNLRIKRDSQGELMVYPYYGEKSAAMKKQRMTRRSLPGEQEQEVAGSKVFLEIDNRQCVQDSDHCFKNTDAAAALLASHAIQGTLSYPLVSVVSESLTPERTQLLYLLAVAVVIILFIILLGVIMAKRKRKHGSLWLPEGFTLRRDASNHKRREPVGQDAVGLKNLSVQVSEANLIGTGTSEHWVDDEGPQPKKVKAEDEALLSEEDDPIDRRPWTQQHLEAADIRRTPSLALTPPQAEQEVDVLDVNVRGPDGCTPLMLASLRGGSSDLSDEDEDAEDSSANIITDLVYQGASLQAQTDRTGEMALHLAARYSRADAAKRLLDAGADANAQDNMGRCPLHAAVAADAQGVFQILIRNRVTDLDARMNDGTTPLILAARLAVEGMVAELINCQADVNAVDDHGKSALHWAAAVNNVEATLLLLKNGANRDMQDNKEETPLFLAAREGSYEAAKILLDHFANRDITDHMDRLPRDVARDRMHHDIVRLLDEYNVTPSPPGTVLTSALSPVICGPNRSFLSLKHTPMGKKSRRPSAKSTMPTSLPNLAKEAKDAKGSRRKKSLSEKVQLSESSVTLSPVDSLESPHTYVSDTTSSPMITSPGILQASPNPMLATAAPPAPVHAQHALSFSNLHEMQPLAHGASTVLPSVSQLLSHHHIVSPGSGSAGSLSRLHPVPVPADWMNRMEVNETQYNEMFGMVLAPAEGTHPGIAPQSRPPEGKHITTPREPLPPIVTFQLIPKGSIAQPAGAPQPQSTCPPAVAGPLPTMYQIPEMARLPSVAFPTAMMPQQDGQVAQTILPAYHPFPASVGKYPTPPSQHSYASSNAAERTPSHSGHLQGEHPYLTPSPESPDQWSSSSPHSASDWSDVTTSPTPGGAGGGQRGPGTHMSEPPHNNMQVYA

Here are 2 compounds together with their reported answers.
{"columns": ["compound", "composite z-score"],
 "data": [
  ["COCCCNC(=O)[C@@]1(Cc2ccccc2N=[N+]=[N-])N=C(c2ccc(OCCCO)cc2)O[C@H]1c1ccccc1", 0.629],
  ["[N-]=[N+]=NCc1ccccc1C[C@@]1(C(=O)NCc2ccccc2)N=C(c2ccc(OCCCO)cc2)O[C@@H]1c1ccccc1N=[N+]=[N-]", 1.33]
]}

Lab note: each compound below needs its composite z-score filled in.
1. COc1ccc([Si](C)(C)[C@@H]2[C@@H](CC(=O)N3Cc4ccccc4C[C@H]3CO)O[C@]3(C(=O)N(Cc4cccc(N5C(=O)c6cccc7cccc5c67)c4)c4ccccc43)[C@H]2C)cc1
2. Cc1ccc(S[C@]2(C(=O)O)CC(=O)N(Cc3ccccc3Cl)[C@@H]2c2ccc(CO)cc2I)cc1
3. CC(CO)N1C(=O)[C@@H]2[C@H]3C(=O)OCC=C[C@H]3OC23C=CCN(Cc2ccccc2)C(=O)[C@@H]13 (stereo partly specified)
4. C=CCOC(=O)[C@H]1[C@@H]2C(=O)O[C@@H](c3ccccc3)[C@@H](c3ccccc3)N2[C@@H](c2ccc(OCCOC(=O)[C@@H]3C[C@@H]4C(=O)N[C@@H](CCCCNC(C)=O)C(=O)N4[C@@H]3c3ccc(O)cc3)cc2)[C@]12C(=O)Nc1ccc(I)cc12
5. Cc1cc(C)c(C(O)C2C=CC3C(=O)NC(=O)C3N2Nc2ccc(Cl)cc2Cl)c(C)c1 (stereo unspecified)

a:
0.973
-0.442
-0.374
1.43
1.49

Batch request: composite z-score for each of the following compounds.
1. CCCCCCCCCCC(O)C1C=CC2C(=O)N(C)C(=O)C2N1Nc1ccc([N+](=O)[O-])cc1[N+](=O)[O-] (stereo unspecified)
2. C[N+](C)(C)CCCCCCNC(=O)[C@H]1C[C@H]2C(=O)NCC(=O)N2[C@H]1c1ccc(O)cc1
3. C=C(C)C1CCC(C(O)C2C=CC3C(=O)N(C)C(=O)C3N2N2CCCCC2)CC1 (stereo unspecified)
4. CN1C(=O)C2C=CC(C(O)c3cccc(O)c3)N(Nc3ccccc3)C2C1=O (stereo unspecified)
5. O=C(NCC(F)(F)F)[C@@H]1c2ccccc2C(=O)N(Cc2ccccc2C(F)(F)F)[C@H]1c1ccc(CO)cc1
6. [N-]=[N+]=Nc1ccccc1[C@H]1OC(c2ccc(OCCCO)cc2)=N[C@@]1(CCS(=O)(=O)c1ccccc1)C(=O)NCCN1CCOCC1

a:
1.55
0.0422
1.62
0.768
-0.169
1.28

I have 8 compounds here; please give me composite z-score for each one.
1. O=C1O[C@H](c2ccccc2)[C@H](c2ccccc2)N2[C@H]1[C@@H](C(=O)N1CCN(c3ncccn3)CC1)[C@]1(C(=O)Nc3ccc(C#CC4(O)CCCCCC4)cc31)[C@H]2c1ccc(OCCO)cc1
2. NCCCCCCNC(=O)[C@@H]1C[C@@H]2C(=O)N[C@@H](CCCCN)C(=O)N2[C@@H]1c1cccc(OCCO)c1
3. COc1cc(OC)c(C(O)C2C=CC3C(=O)N(c4ccccc4)C(=O)C3N2Nc2ccccc2)cc1Br (stereo unspecified)
4. CCOC(=O)C[C@H]1[C@H](OC(=O)c2ccccc2-c2ccccc2)[C@@H](NC(=O)c2ccc(-c3ccccc3)cc2)c2cc(OCCCO)ccc2N1C(=O)c1ccc2ccccc2n1
5. C[N+](C)(C)CCCCCCNC(=O)[C@H]1C[C@H]2C(=O)N[C@@H](Cc3ccccc3)C(=O)N2[C@H]1c1ccc(O)cc1
6. COC(=O)[C@@]1(Cc2ccc(OC)cc2)[C@@H]2C(=CC(=O)[C@H]2CC(=O)C(=O)N(C)C)CN1C(=O)c1ccccc1
7. CC(C)Cc1ccc(CN2CC[C@@H](NC(=O)Nc3ccccc3)C2)cc1
8. [N-]=[N+]=Nc1ccccc1[C@H]1OC(c2ccc(OCCCO)cc2)=N[C@@]1(Cc1ccccc1)C(=O)N1CCCCC1

a:
1. 1.52
2. 0.303
3. 0.878
4. 0.75
5. 0.224
6. 1.77
7. -0.3
8. 1.63
